- assay.name: Components of the Cytosolic LPS Sensing Pathway: Gene Identification via Genome-wide siRNA Screen
- particulars: RAW264.7 macrophages, IL-1a HTRF, actives lie on both sides, screened at 100 nM (by protocol), cells primed 5 h with Pam3CSK4 first
- Method: Non-canonical inflammasome activation by cytosolic LPS is a critical component of the host response to Gram-negative bacterial infection, however we lack a comprehensive understanding of the cellular processes that control this pathway. […] Lipofectamine RNAiMAX Transfection Reagent ([…]; Invitrogen) was added in […] serum-free, antibiotic-free media to plate wells using a Thermo Scientific Matrix WellMate and Microplate Stacker. […] The plates were read on an EnVision plate reader (PerkinElmer). […]
The campaign covered roughly 53,000 sequences. About 3,700 (7%) were called active.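 The calls were made as follows: active = gene knockdowns whose robust z-score for IL-1 alpha signal is at least 2 or at most -2, so actives lie on both sides; inactive = the rest.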 This is one part of a sample in which actives are shown more often than they occur.
Lab note: assign the record to one of active, inactive

input: Given GGAGUUCAGCAACCUGUUGTT against Tmem97 , state the outcome it received in this test.
output: active

input: Given GGGCAAAAGCUGUUACAAGTT against Ahrr , state the outcome it received in this test.
output: inactive

input: Given GGGUGAUGAUCUUCAGCAATT against Txnrd3 , state the outcome it received in this test.
output: inactive

input: Given GCAUCGCAUUUAAAUAGAATT against 4833408A19Rik , state the outcome it received in this test.
output: inactive

input: Given GGACACUUCCAUGUGCUACTT against Cep19 , state the outcome it received in this test.
output: active

input: Given GGAGUGGCUAUGUUUUCGATT against Hrg , state the outcome it received in this test.
output: inactive
